- System: breast cancer ZR-75 cell line
- method_summary: CellTiter-Glo Luminescent cell viability assay, anti-proliferative activity, ZR-75
- Type: cell-based, human
- test_conditions: Homo sapiens, ZR75, mean ± SD of four separate experiments
Labelling: IC50 reported below 4 µM becomes yes; at or above becomes no.

compound: O=C1Nc2ccc(Cl)cc2C1=NN=Cc1nccs1
class_assignment: yes
//
compound: COC(=O)c1ccc(C=NN=C2C(=O)Nc3ccc(Cl)cc32)cc1
class_assignment: no
//
compound: O=C1Nc2ccc(Cl)cc2C1=NN=Cc1ccn[nH]1
class_assignment: yes
//
compound: O=C1Nc2ccc(Br)cc2C1=NN=Cc1nccs1
class_assignment: no
//
compound: O=C1Nc2ccc(Br)cc2C1=NNc1nc(-c2ccc(Cl)cc2)cs1 [Compound 10k]
class_assignment: yes
//
compound: COC(=O)c1ccc(C=NN=C2C(=O)Nc3ccccc32)cc1
class_assignment: no
